So I've got a bunch of compounds here, and I need their Activity values.
Tested on: MCF7
procedure.text: Cell cycle arrest in human MCF7 cells assessed as accumulation at sub G1 phase at 10 uM after 24 hrs by propidium iodide staining-based flow cytometric analysis (reference value: 7.1%)
Assay type: functional

(Q) Give its Activity value. Item: `CC(C)c1nc(-c2ccccc2)cc2nn(-c3ccccc3)cc12`
(A) 6.7%

(Q) Could you tell me which Activity is on file for `CCCCc1cc2nn(-c3ccccc3)cc2c(C)n1` ?
(A) 19.3%

(Q) Which value of Activity has been reported for `c1ccc(-n2cc3cnc(C4CC4)cc3n2)cc1` in the records?
(A) 7.5%

(Q) Entry `Cc1nc(-c2ccccc2)cc2nn(-c3ccccc3)cc12` has what Activity?
(A) 11.9%

(Q) Find the recorded Activity belonging to `CCCCc1cc2nn(-c3ccccc3)cc2cn1` and report it.
(A) 31.1%

(Q) Report Activity for `Cc1nc(-c2ccsc2)cc2nn(-c3ccccc3)cc12` please.
(A) 22.7%

(Q) Request the reported Activity associated with `Cc1nc(C2CC2)cc2nn(-c3ccccc3)cc12`
(A) 9%

(Q) Look up Activity for this compound: `CCCCc1cc2nn(-c3ccccc3)cc2c(C(C)C)n1`
(A) 7.8%

(Q) Please give the measured Activity for this compound: `CCCCCc1cc2nn(-c3ccccc3)cc2cn1`
(A) 50.3%

(Q) // Activity lookup, key: `CCCCCc1cc2nn(-c3ccccc3)cc2c(C)n1`
(A) 31.1%

(Q) Find the recorded Activity belonging to `c1ccc(-n2cc3cnc(-c4ccsc4)cc3n2)cc1` and report it.
(A) 24.2%

(Q) Could you tell me which Activity is on file for `c1ccc(-c2cc3nn(-c4ccccc4)cc3cn2)cc1` ?
(A) 14.3%
